Exercise: for every item that follows, state its recorded half-life at 1 μM.
# experimental.protocol: Stability in human plasma
# Format: in vitro ADME
# run.conditions: pooled human plasma (lithium heparin), 1 μM compound, 37° C., 1 hour incubation
Give bare numbers, in min.

Nc1nc(N)c(C(=O)/N=C2\NCC3(CCN(C(=O)c4cccc(S(=O)(=O)NCC5(C(=O)OCC(=O)N6CCCC6C(F)(F)F)CCC5)c4)CC3)N2)nc1Cl (centres unmarked) [Example 5.2] :: 39
CCCN(CCC)C(=O)COC(=O)COc1ccc(CCC(=O)N2CCC3(CC2)CN/C(=N\C(=O)c2nc(Cl)c(N)nc2N)N3)cc1Cl [Example 3.0] :: 2

Answer for every listed entry: what is its half-life at 1 μM? The entries follow.
1. CCCN(CCC)C(=O)COC(=O)C1(CNS(=O)(=O)c2cccc(C(=O)N3CCC4(CC3)CN/C(=N\C(=O)c3nc(Cl)c(N)nc3N)N4)c2)CCC1 [Example 5.0]
2. Nc1nc(N)c(C(=O)/N=C2\NCC3(CCN(C(=O)c4cccc(S(=O)(=O)NCCC(=O)OCC(=O)OC5CCCCC5)c4)CC3)N2)nc1Cl [Example 1.3]

Solution:
1. 5
2. 4

Lab note: CC(C)(C)OC(=O)COC(=O)COc1ccc(CCC(=O)N2CCC3(CC2)CN/C(=N\C(=O)c2nc(Cl)c(N)nc2N)N3)cc1 [Example 2.1] gave half-life at 1 μM of 5
